# Assay system: Neurotensin receptor type 1 (Homo sapiens, UniProt P30989)
# Sequence (P30989 whole entry): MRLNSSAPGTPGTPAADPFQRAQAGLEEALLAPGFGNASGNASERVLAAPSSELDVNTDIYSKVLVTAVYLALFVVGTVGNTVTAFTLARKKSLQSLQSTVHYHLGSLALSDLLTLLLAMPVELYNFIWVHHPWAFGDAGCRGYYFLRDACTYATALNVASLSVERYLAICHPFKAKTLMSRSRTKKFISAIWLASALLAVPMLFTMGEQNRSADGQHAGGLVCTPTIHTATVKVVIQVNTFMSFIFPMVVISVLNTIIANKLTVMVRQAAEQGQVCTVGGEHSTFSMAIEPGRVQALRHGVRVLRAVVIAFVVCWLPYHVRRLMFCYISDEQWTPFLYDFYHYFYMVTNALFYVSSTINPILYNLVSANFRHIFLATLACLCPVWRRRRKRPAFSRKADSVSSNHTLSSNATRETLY
# Test description: Displacement of [125I]-neurotensin from human recombinant NTS1 stably expressed in CHO-K1 cell membranes incubated for 60 mins by gamma counter method
Numbered stars: 1 amine (or outer) side, 2 acyl side, 3 side chain; on linkers, the order of the positions; unused ones are H or OH. Square brackets hold non-standard residues; d marks the D form. Peptide text beside a SMILES is read from it. X1 = O=C1[C@@H](N[*:1])Cc2ccccc2CN1CCC(=O)[*:2]; Dmt = Cc1cc(O)cc(C)c1C[C@H](N)C(=O)O; Tle = CC(C)(C)[C@H](N)C(=O)O; β3hK = NCCCC[C@H](N)CC(=O)O
Measured attribute: Ki (nM)

>  <Compound>
Cc1cc(O)cc(C)c1C[C@H](NC(=O)[C@@H]1CCCN1C(=O)[C@H](CCCNC(=N)N)NC(=O)C[C@@H](N)CCCNC(=N)N)C(=O)N[C@H](C(=O)N[C@@H](CC(C)C)C(=O)O)C(C)(C)C

>  <Measured attribute>
Ki

>  <Unit of measurement>
nM

>  <Measured result>
2.3

$$$$
>  <Compound>
Cc1cc(O)cc(C)c1C[C@H](NC(=O)[C@@H]1CCCN1C(=O)[C@H](CCCCN)NC(=O)[C@H](CCCCN)NC(=O)CCN1Cc2ccccc2C[C@H](NC(=O)[C@@H](CCCNC(=N)N)NC(=O)[C@@H](N)Cc2c(C)cc(O)cc2C)C1=O)C(=O)N[C@H](C(=O)N[C@@H](CC(C)C)C(=O)O)C(C)(C)C (H-[Dmt][dR][X1]KKP[Dmt][Tle]L-OH)

>  <Measured attribute>
Ki

>  <Unit of measurement>
nM

>  <Measured result>
13

$$$$
>  <Compound>
Cc1cc(O)cc(C)c1C[C@H](NC(=O)[C@@H]1CCCN1C(=O)[C@H](CCCCN)NC(=O)C[C@H](CCCCN)NC(=O)CCN1Cc2ccccc2C[C@H](NC(=O)[C@@H](CCCNC(=N)N)NC(=O)[C@@H](N)Cc2c(C)cc(O)cc2C)C1=O)C(=O)N[C@H](C(=O)N[C@@H](CC(C)C)C(=O)O)C(C)(C)C (H-[Dmt][dR][X1][β3hK]KP[Dmt][Tle]L-OH)

>  <Measured attribute>
Ki

>  <Unit of measurement>
nM

>  <Measured result>
15

$$$$

---

# Assay system: UniProt P35372
# Sequence (P35372 whole entry): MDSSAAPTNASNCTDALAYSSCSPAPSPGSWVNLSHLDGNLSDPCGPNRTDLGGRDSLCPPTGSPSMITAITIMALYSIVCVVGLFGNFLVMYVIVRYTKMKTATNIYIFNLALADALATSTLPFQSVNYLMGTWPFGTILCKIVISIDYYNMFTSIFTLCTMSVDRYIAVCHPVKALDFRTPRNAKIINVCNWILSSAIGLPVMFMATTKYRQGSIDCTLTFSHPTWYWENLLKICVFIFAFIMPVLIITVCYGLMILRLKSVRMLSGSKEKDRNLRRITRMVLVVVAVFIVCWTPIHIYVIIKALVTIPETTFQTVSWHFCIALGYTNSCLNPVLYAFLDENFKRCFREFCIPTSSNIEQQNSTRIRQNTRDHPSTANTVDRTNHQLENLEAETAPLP
# Test description: Agonist activity at human MOR stably expressed in CHO cell membranes assessed as stimulation of [35S]-GTPgammaS binding incubated for 1 hr by liquid scintillation counting assay
# Assay type: functional
pEC50: −log10 of the molar value. Numbered stars: 1 amine (or outer) side, 2 acyl side, 3 side chain; on linkers, the order of the positions; unused ones are H or OH. Square brackets hold non-standard residues; d marks the D form. Peptide text beside a SMILES is read from it. X1 = O=C1[C@@H](N[*:1])Cc2ccccc2CN1CCC(=O)[*:2]; X2 = O=C([C@@H]1Cc2cc(O)ccc2CN1[*:1])[*:2]; Dmt = Cc1cc(O)cc(C)c1C[C@H](N)C(=O)O; Tle = CC(C)(C)[C@H](N)C(=O)O
# pEC50 values compiled below

>  <Molecule>
Cc1cc(O)cc(C)c1C[C@H](NC(=O)[C@@H]1CCCN1C(=O)[C@H](CCCCN)NC(=O)[C@H](CCCCN)NC(=O)CCN1Cc2ccccc2C[C@H](NC(=O)[C@@H](CCCNC(=N)N)NC(=O)[C@@H](N)Cc2c(C)cc(O)cc2C)C1=O)C(=O)N[C@H](C(=O)N[C@@H](CC(C)C)C(=O)O)C(C)(C)C (H-[Dmt][dR][X1]KKP[Dmt][Tle]L-OH)

>  <pEC50>
7.31

$$$$
>  <Molecule>
Cc1cc(O)cc(C)c1C[C@H](N)C(=O)N[C@H](CCCNC(=N)N)C(=O)N[C@H]1Cc2ccccc2CN(CCC(=O)N[C@@H](CCCCN)C(=O)N[C@@H](CCCCN)C(=O)N2CCC[C@H]2C(=O)N2Cc3ccc(O)cc3C[C@H]2C(=O)N[C@H](C(=O)N[C@@H](CC(C)C)C(=O)O)C(C)(C)C)C1=O (H-[Dmt][dR][X1]KKP[X2][Tle]L-OH)

>  <pEC50>
7.34

$$$$
>  <Molecule>
Cc1cc(O)cc(C)c1C[C@H](N)C(=O)N[C@H](CCCNC(=N)N)C(=O)N[C@H]1Cc2ccccc2CN(CCC(=O)N[C@@H](CCCCN)C(=O)N[C@@H](CCCCN)C(=O)N2CCC[C@H]2C(=O)N[C@@H](Cc2ccc(O)cc2)C(=O)N[C@H](C(=O)N[C@@H](CC(C)C)C(=O)O)C(C)(C)C)C1=O (H-[Dmt][dR][X1]KKPY[Tle]L-OH)

>  <pEC50>
7.19

$$$$

---

# pKi values compiled below
# Assay system: Neurotensin receptor type 2 (Homo sapiens, UniProt O95665)
# Sequence (O95665 whole entry): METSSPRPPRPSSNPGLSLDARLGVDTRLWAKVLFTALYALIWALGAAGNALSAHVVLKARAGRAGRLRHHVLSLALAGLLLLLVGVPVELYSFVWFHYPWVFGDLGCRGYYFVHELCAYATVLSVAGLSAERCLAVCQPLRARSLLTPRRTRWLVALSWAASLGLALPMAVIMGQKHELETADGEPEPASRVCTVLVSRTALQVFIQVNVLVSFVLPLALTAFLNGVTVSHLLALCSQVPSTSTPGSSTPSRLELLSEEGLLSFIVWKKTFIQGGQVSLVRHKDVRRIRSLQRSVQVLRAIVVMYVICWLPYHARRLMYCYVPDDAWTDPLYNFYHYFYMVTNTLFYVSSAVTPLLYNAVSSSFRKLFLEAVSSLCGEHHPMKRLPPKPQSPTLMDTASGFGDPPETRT
# Test description: Displacement of [125I]-neurotensin from human recombinant NTS2 stably expressed in human 1321N1 cell membranes incubated for 60 mins by gamma counter method
pKi: −log10 of the molar value. Numbered stars: 1 amine (or outer) side, 2 acyl side, 3 side chain; on linkers, the order of the positions; unused ones are H or OH. Square brackets hold non-standard residues; d marks the D form. Peptide text beside a SMILES is read from it. X1 = O=C1[C@@H](N[*:1])Cc2ccccc2CN1CCC(=O)[*:2]; Dmt = Cc1cc(O)cc(C)c1C[C@H](N)C(=O)O; mTyr = N[C@@H](Cc1cccc(O)c1)C(=O)O; β3hR = N=C(N)NCCC[C@H](N)CC(=O)O; Tle = CC(C)(C)[C@H](N)C(=O)O
Measured attribute: pKi

>  <Compound>
Cc1cc(O)cc(C)c1C[C@H](NC(=O)[C@@H]1CCCN1C(=O)[C@H](CCCNC(=N)N)NC(=O)C[C@H](CCCNC(=N)N)NC(=O)CCN1Cc2ccccc2C[C@H](NC(=O)[C@@H](CCCNC(=N)N)NC(=O)[C@@H](N)Cc2c(C)cc(O)cc2C)C1=O)C(=O)N[C@H](C(=O)N[C@@H](CC(C)C)C(=O)O)C(C)(C)C (H-[Dmt][dR][X1][β3hR]RP[Dmt][Tle]L-OH)

>  <Measured result>
11.52

$$$$
>  <Compound>
Cc1cc(O)cc(C)c1C[C@H](N)C(=O)N[C@H](CCCNC(=N)N)C(=O)N[C@H]1Cc2ccccc2CN(CCC(=O)N[C@@H](CCCCN)C(=O)N[C@@H](CCCCN)C(=O)N2CCC[C@H]2C(=O)N[C@@H](Cc2cccc(O)c2)C(=O)N[C@H](C(=O)N[C@@H](CC(C)C)C(=O)O)C(C)(C)C)C1=O (H-[Dmt][dR][X1]KKP[mTyr][Tle]L-OH)

>  <Measured result>
9.30

$$$$
>  <Compound>
Cc1cc(O)cc(C)c1C[C@H](NC(=O)[C@@H]1CCCN1C(=O)[C@H](CCCNC(=N)N)NC(=O)[C@H](CCCNC(=N)N)NC(=O)CCN1Cc2ccccc2C[C@H](NC(=O)[C@@H](CCCNC(=N)N)NC(=O)[C@@H](N)Cc2c(C)cc(O)cc2C)C1=O)C(=O)N[C@H](C(=O)N[C@@H](CC(C)C)C(=O)O)C(C)(C)C (H-[Dmt][dR][X1]RRP[Dmt][Tle]L-OH)

>  <Measured result>
10.52

$$$$
>  <Compound>
Cc1cc(O)cc(C)c1C[C@H](N)C(=O)N[C@H](CCCNC(=N)N)C(=O)N[C@H]1Cc2ccccc2CN(CCC(=O)N[C@@H](CCCNC(=N)N)C(=O)N[C@@H](CCCNC(=N)N)C(=O)N2CCC[C@H]2C(=O)N[C@@H](Cc2ccc(O)cc2)C(=O)N[C@H](C(=O)N[C@@H](CC(C)C)C(=O)O)C(C)(C)C)C1=O (H-[Dmt][dR][X1]RRPY[Tle]L-OH)

>  <Measured result>
10.05

$$$$

---

# Assay system: UniProt:P41145
# Sequence (P41145 whole entry): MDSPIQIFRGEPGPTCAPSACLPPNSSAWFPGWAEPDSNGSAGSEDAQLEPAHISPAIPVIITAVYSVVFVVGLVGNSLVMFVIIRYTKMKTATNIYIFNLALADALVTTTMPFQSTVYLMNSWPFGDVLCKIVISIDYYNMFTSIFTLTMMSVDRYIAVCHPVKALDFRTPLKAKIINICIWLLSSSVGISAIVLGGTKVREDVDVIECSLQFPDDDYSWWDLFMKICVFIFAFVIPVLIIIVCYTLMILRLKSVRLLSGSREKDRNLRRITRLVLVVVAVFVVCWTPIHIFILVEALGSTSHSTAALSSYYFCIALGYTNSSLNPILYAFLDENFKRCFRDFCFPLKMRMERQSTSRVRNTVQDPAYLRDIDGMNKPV
# Test description: Displacement of [3H]-U69593 from recombinant human kappa opioid receptor expressed in CHO cell membrane incubated for 60 mins by liquid scintillation counting method
pKi: −log10 of the molar value. Numbered stars: 1 amine (or outer) side, 2 acyl side, 3 side chain; on linkers, the order of the positions; unused ones are H or OH. Square brackets hold non-standard residues; d marks the D form. Peptide text beside a SMILES is read from it. X1 = O=C1[C@@H](N[*:1])Cc2ccccc2CN1CCC(=O)[*:2]; X2 = O=C([C@@H]1Cc2cc(O)ccc2CN1[*:1])[*:2]; Dmt = Cc1cc(O)cc(C)c1C[C@H](N)C(=O)O; Tle = CC(C)(C)[C@H](N)C(=O)O

>  <Compound>
Cc1cc(O)cc(C)c1C[C@H](N)C(=O)N[C@H](CCCNC(=N)N)C(=O)N[C@H]1Cc2ccccc2CN(CCC(=O)N[C@@H](CCCNC(=N)N)C(=O)N[C@@H](CCCNC(=N)N)C(=O)N2CCC[C@H]2C(=O)N2Cc3ccc(O)cc3C[C@H]2C(=O)N[C@H](C(=O)N[C@@H](CC(C)C)C(=O)O)C(C)(C)C)C1=O (H-[Dmt][dR][X1]RRP[X2][Tle]L-OH)

>  <pKi>
7.65

$$$$
>  <Compound>
Cc1cc(O)cc(C)c1C[C@H](N)C(=O)N[C@H](CCCCN)C(=O)N[C@@H](Cc1ccccc1)C(=O)N[C@@H](Cc1ccccc1)C(=O)N[C@@H](CCCCN)C(=O)N[C@@H](CCCCN)C(=O)N1CCC[C@H]1C(=O)N[C@@H](Cc1ccccc1)C(=O)N[C@H](C(=O)N[C@@H](CC(C)C)C(=O)O)C(C)(C)C (H-[Dmt][dK]FFKKPF[Tle]L-OH)

>  <pKi>
7.47

$$$$
>  <Compound>
Cc1cc(O)cc(C)c1C[C@H](NC(=O)[C@@H]1CCCN1C(=O)[C@H](CCCNC(=N)N)NC(=O)[C@H](CCCNC(=N)N)NC(=O)CCN1Cc2ccccc2C[C@H](NC(=O)[C@@H](CCCNC(=N)N)NC(=O)[C@@H](N)Cc2c(C)cc(O)cc2C)C1=O)C(=O)N[C@H](C(=O)N[C@@H](CC(C)C)C(=O)O)C(C)(C)C (H-[Dmt][dR][X1]RRP[Dmt][Tle]L-OH)

>  <pKi>
6.99

$$$$
